# protocol.details: Solubility of hydrogen fumarate salt 11 (1000 mg scale-up batch)
# Type: physicochemical
# experimental.parameters: organic solvent or mixture; Toluene, 50° C.
test.readout: solubility

Ask | Fill blank: measured solubility of the compound CC(C)c1nc(-c2cnc(N)c(OC(F)(F)F)c2)cn1C12CC(N3CCOCC3)(C1)C2.O=C(O)/C=C/C(=O)O is ____.
Reply | < 10000 µg/mL

---

# protocol.details: Solubility of the Example 1 compound in organic solvents
# Type: physicochemical
# experimental.parameters: 25 °C, aqueous with cosolvent or surfactant or cyclodextrin, thermodynamic from solid; 1/1 (v/v) EtOH/H2O, RT
test.readout: solubility at 2 h

Ask | Fill blank: measured solubility at 2 h of the compound CC(C)c1nc(-c2cnc(N)c(OC(F)(F)F)c2)cn1C12CC(N3CCOCC3)(C1)C2 is ____.
Reply | < 50 mg/mL

---

# protocol.details: Solubility of the Example 1 compound in organic solvents
# Format: physicochemical
# experimental.parameters: organic solvent or mixture, thermodynamic from solid; Toluene, 50° C.
test.readout: solubility

Ask | Fill blank: measured solubility of the compound CC(C)c1nc(-c2cnc(N)c(OC(F)(F)F)c2)cn1C12CC(N3CCOCC3)(C1)C2 is ____.
Reply | < 50 mg/mL

---

# protocol.details: Solubility of hydrogen fumarate salt 11 (1000 mg scale-up batch)
# Assay type: physicochemical
# experimental.parameters: organic solvent or mixture; Heptane, 50° C.
test.readout: solubility

Ask | Fill blank: measured solubility of the compound CC(C)c1nc(-c2cnc(N)c(OC(F)(F)F)c2)cn1C12CC(N3CCOCC3)(C1)C2.O=C(O)/C=C/C(=O)O is ____.
Reply | < 10000 µg/mL

---

# protocol.details: Solubility of hydrogen fumarate salt 11 (1000 mg scale-up batch)
# Type: physicochemical
# experimental.parameters: organic solvent or mixture; THF, 50° C.
test.readout: solubility

Ask | Fill blank: measured solubility of the compound CC(C)c1nc(-c2cnc(N)c(OC(F)(F)F)c2)cn1C12CC(N3CCOCC3)(C1)C2.O=C(O)/C=C/C(=O)O [Example 11] is ____.
Reply | 33 to 50 mg/mL

---

# protocol.details: Solubility of hydrogen fumarate salt 11 (1000 mg scale-up batch)
# Format: physicochemical
# experimental.parameters: water; H2O, RT
test.readout: solubility

Ask | Fill blank: measured solubility of the compound CC(C)c1nc(-c2cnc(N)c(OC(F)(F)F)c2)cn1C12CC(N3CCOCC3)(C1)C2.O=C(O)/C=C/C(=O)O is ____.
Reply | < 10000 µg/mL

---

# protocol.details: Solubility of the Example 1 compound in organic solvents
# Type: physicochemical
# experimental.parameters: 25 °C, organic solvent or mixture, thermodynamic from solid; IPA, RT
test.readout: solubility at 2 h

Ask | Fill blank: measured solubility at 2 h of the compound CC(C)c1nc(-c2cnc(N)c(OC(F)(F)F)c2)cn1C12CC(N3CCOCC3)(C1)C2 [Example 1] is ____.
Reply | > 50 mg/mL

---

# protocol.details: Solubility of hydrogen fumarate salt 11 (1000 mg scale-up batch)
# Format: physicochemical
# experimental.parameters: organic solvent or mixture; DCM, RT
test.readout: solubility

Ask | Fill blank: measured solubility of the molecule CC(C)c1nc(-c2cnc(N)c(OC(F)(F)F)c2)cn1C12CC(N3CCOCC3)(C1)C2.O=C(O)/C=C/C(=O)O is ____.
Reply | < 10000 µg/mL
